Reference for the values: patent US8697869B2

measurement.target: hCRTH2 receptor (Homo sapiens (Human))
Sequence (Q9Y5Y4 whole entry): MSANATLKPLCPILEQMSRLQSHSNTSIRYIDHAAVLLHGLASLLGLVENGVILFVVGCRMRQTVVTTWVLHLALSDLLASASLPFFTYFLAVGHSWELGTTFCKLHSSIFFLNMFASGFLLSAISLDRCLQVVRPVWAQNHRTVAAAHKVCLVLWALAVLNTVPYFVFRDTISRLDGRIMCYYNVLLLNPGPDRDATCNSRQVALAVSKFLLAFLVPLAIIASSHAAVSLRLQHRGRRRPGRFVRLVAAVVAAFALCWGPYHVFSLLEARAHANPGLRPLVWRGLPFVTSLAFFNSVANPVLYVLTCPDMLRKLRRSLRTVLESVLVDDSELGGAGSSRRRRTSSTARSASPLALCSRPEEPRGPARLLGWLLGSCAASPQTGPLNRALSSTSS
measurement.notes: Radioligand displacement assay in presence of human serum albumin (HSA)
assay.conditions: 3H-PGD2 2.5 nM, Binding-Buffer with 0.5% HSA instead of 0.1% BSA
pIC50: −log10 of the molar value.
Each item that follows carries a reported pIC50.
attribute.measured: pIC50

> print(dat)
                                chem.smiles  attribute.measured  result
1  O=C(O)Cn1c2c(c3cc(F)ccc31)C[C@@H](Nc1ncc(F)cn1)CC2               pIC50    7.70
2  CN(c1nc2ccccc2s1)[C@H]1CCc2c(c3cc(F)ccc3n2CC(=O)O)C1               pIC50    7.40
3  O=C(O)Cn1c2c(c3cc(F)ccc31)C[C@@H](Nc1ncc(Cl)cn1)CC2               pIC50    7.64
4  CCN(c1ncc(Cl)cn1)[C@H]1CCc2c(c3cc(F)ccc3n2CC(=O)O)C1               pIC50    7.72
